Assay type: in vivo, human
measurement-conditions: human, plasma, po, 180 mg, Cmax, Geometric mean (% CV), fed (high-fat meal), single oral 180 mg, N = 24
recorded-endpoint: Cmax (ng/mL)
Response body: numeric value in ng/mL, unit text excluded.

// "COc1cc(N2CCC(N3CCN(C)CC3)CC2)ccc1Nc1ncc(Cl)c(Nc2ccccc2P(C)(C)=O)n1" : Cmax value = 605

----------
Format: in vivo, human
measurement-conditions: human, plasma, po, 180 mg, t1/2 (terminal elimination half-life), Mean (SD), fasted, single oral 180 mg, N = 21
recorded-endpoint: half-life

// "COc1cc(N2CCC(N3CCN(C)CC3)CC2)ccc1Nc1ncc(Cl)c(Nc2ccccc2P(C)(C)=O)n1" : half-life value = 31 h
